System: Klebsiella pneumoniae
Assay: Antimicrobial activity against tetracycline-resistant Klebsiella pneumoniae isolate 153 harboring tetA gene by CLSI dilution method
Type: functional

COMPOUND: CN(C)[C@@H]1C(O)=C(C(N)=O)C(=O)[C@@]2(O)C(O)=C3C(=O)c4c(c(OCC(O)CO)c5ccc(CN6CCC6)cc5c4O)C[C@H]3C[C@@H]12 (stereo partly drawn)
TARGET_OR_TEST_SYSTEM: Klebsiella pneumoniae
MIC: > 32 µg/mL

COMPOUND: CN(C)[C@@H]1C(O)=C(C(N)=O)C(=O)[C@@]2(O)C(O)=C3C(=O)c4c(cc5c(N)cccc5c4O)C[C@H]3C[C@@H]12
TARGET_OR_TEST_SYSTEM: Klebsiella pneumoniae
MIC: > 32 µg/mL

COMPOUND: CNc1cccc2c(O)c3c(cc12)C[C@H]1C[C@H]2[C@H](N(C)C)C(O)=C(C(N)=O)C(=O)[C@@]2(O)C(O)=C1C3=O
TARGET_OR_TEST_SYSTEM: Klebsiella pneumoniae
MIC: > 32 µg/mL

----------
System: Streptococcus pneumoniae
Test: Antimicrobial activity against tetracycline-resistant Streptococcus pneumoniae isolate 160 harboring tetM gene by CLSI dilution method
Type: functional
REPORTED_ENDPOINT: MIC (µg/mL)

STRUCTURE_NOTATION: CN(C)c1ccc(-c2ccc3cc4c(c(O)c3c2)C(=O)C2=C(O)[C@]3(O)C(=O)C(C(N)=O)=C(O)[C@@H](N(C)C)[C@@H]3C[C@@H]2C4)cc1
RELATION_QUALIFIER: >
RECORDED_RESULT: 32

STRUCTURE_NOTATION: CN(C)[C@@H]1C(O)=C(C(N)=O)C(=O)[C@@]2(O)C(O)=C3C(=O)c4c(cc5ccc(-c6ccccc6)cc5c4O)C[C@H]3C[C@@H]12
RELATION_QUALIFIER: >
RECORDED_RESULT: 32

STRUCTURE_NOTATION: CN(C)Cc1ccc2c(N(C)C)c3c(c(O)c2c1)C(=O)C1=C(O)[C@]2(O)C(=O)C(C(N)=O)=C(O)[C@@H](N(C)C)[C@@H]2C[C@@H]1C3
RELATION_QUALIFIER: =
RECORDED_RESULT: 0.25

STRUCTURE_NOTATION: CN(Cc1ccc2cc3c(c(O)c2c1)C(=O)C1=C(O)[C@]2(O)C(=O)C(C(N)=O)=C(O)[C@@H](N(C)C)[C@@H]2C[C@@H]1C3)c1ccccc1
RELATION_QUALIFIER: =
RECORDED_RESULT: 2

STRUCTURE_NOTATION: CN(C)[C@@H]1C(O)=C(C(N)=O)C(=O)[C@@]2(O)C(O)=C3C(=O)c4c(cc5ccc(CN(C)S(C)(=O)=O)cc5c4O)C[C@H]3C[C@@H]12
RELATION_QUALIFIER: =
RECORDED_RESULT: 4

STRUCTURE_NOTATION: CNc1cccc2c(O)c3c(cc12)C[C@H]1C[C@H]2[C@H](N(C)C)C(O)=C(C(N)=O)C(=O)[C@@]2(O)C(O)=C1C3=O
RELATION_QUALIFIER: =
RECORDED_RESULT: 16

STRUCTURE_NOTATION: CNCc1ccc2c(N(C)C)c3c(c(O)c2c1)C(=O)C1=C(O)[C@]2(O)C(=O)C(C(N)=O)=C(O)[C@@H](N(C)C)[C@@H]2C[C@@H]1C3
RELATION_QUALIFIER: =
RECORDED_RESULT: 0.5

STRUCTURE_NOTATION: CN(C)Cc1ccc2c(F)c3c(c(O)c2c1)C(=O)C1=C(O)[C@]2(O)C(=O)C(C(N)=O)=C(O)[C@@H](N(C)C)[C@@H]2C[C@@H]1C3
RELATION_QUALIFIER: =
RECORDED_RESULT: 8
